Recorded Kd values (UniProtKB P42535) are given below.
Sequence (P42535 whole entry): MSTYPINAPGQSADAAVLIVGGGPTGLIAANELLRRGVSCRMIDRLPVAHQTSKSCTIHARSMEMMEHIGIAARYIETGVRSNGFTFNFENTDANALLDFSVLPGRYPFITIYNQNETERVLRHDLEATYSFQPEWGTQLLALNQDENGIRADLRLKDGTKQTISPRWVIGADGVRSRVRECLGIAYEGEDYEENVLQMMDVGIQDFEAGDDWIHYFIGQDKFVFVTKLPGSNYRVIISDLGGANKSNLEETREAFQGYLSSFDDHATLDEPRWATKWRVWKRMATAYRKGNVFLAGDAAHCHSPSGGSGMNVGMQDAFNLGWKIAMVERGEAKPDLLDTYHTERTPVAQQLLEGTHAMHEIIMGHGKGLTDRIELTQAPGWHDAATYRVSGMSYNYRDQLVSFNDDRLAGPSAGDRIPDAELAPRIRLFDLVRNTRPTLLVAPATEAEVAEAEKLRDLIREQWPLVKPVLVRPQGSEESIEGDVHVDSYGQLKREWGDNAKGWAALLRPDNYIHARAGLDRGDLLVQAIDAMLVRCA
Readout Name: Kd (µM)

compound="Oc1c(Cl)c(Cl)c(O)c(Cl)c1Cl [Tetrachlorohydroquinone (TCHQ)]" assayed_target="UniProtKB P42535" reading_unit=µM value_operator== value_reported=4.2
compound=Oc1cc(Cl)c(Cl)c(Cl)c1 assayed_target="UniProtKB P42535" reading_unit=µM value_operator=> value_reported=500
compound=Oc1c(Cl)c(Cl)c(Cl)c(Cl)c1Cl assayed_target="UniProtKB P42535" reading_unit=µM value_operator=< value_reported=0.05
compound=Oc1cc(Cl)cc(Cl)c1 assayed_target="UniProtKB P42535" reading_unit=µM value_operator=> value_reported=500
compound=Oc1c(Cl)cc(Cl)cc1Cl assayed_target="UniProtKB P42535" reading_unit=µM value_operator== value_reported=7
compound=Oc1c(Cl)cccc1Cl assayed_target="UniProtKB P42535" reading_unit=µM value_operator== value_reported=45.5
compound=Oc1c(Cl)c(Cl)cc(Cl)c1Cl assayed_target="UniProtKB P42535" reading_unit=µM value_operator== value_reported=11
compound=Oc1ccccc1Cl assayed_target="UniProtKB P42535" reading_unit=µM value_operator=> value_reported=1000
